test: yeast display, Sf9 membrane polyspecificity reagent, FACS + sequencing; frameworks hold sequencing errors

[
  {
    "Primary sequence": "QVQLLESGGGLVQAGGSLRLSCAASGRIFQFYAMGWYRKAPGKERELVAANSVRGGSTYYAHSVKGRFTISRDNEKNTVYLQMNSLKPEDTAVYYCAASKWGGYYYWGQGTQVTVSS",
    "polyreactivity (PSR sort gate)": "high polyreactivity"
  },
  {
    "Primary sequence": "QVQLVESGGGLVQAGGSLRLSCAASGFTFPYYAMGWSRQAPGKERELVAAISFSGGSPYYADSVKGRFTISRDNAKNTVYLQMNSLKPEDTAVYYCAATTKYNGRRSYFKFDYWGQGTQVTVST",
    "polyreactivity (PSR sort gate)": "high polyreactivity"
  }
]

----------
test: yeast display, Sf9 membrane polyspecificity reagent, FACS + sequencing; frameworks hold sequencing errors
Measurement label: polyreactivity (PSR sort gate)

[
  {
    "Primary sequence": "QVQLVESGGGLVQAGGSLRISCAASGITFVYYDMAWYRQAPGKDSELVAAISGGGSTNYADSVKGRFTISRDNAKNTVYLQRKSLKPEDTAVYYCNAELYYGDEGDSWGQGTLVTVSS",
    "Recorded value": "low polyreactivity"
  },
  {
    "Primary sequence": "QVQLVESGGGLVQAGGSLRLNCAASGSIFDDYAMGWYRQAPGKERELVAAINIRTGSTYYADSEKGRFTISRDNAKNTVYLQMNSLKPEDTAVYYCNSVVRGFVRHLDYWGQGTQVTVSS",
    "Recorded value": "low polyreactivity"
  }
]

----------
experiment: yeast display, Sf9 membrane polyspecificity reagent, FACS + sequencing; frameworks hold sequencing errors

[
  {
    "Primary sequence": "QVQLVESGGGLVQAGGSLRLSCAASGRTFTQYAMGWYRQAPGKDRELVAAIDYRGSRTYYADSVKGRFTLTRDKAKNTVYLQMNSLKPEDTAVYYCNTVHRFGTYDYWGEGTQVTVSS",
    "polyreactivity (PSR sort gate)": "high polyreactivity"
  },
  {
    "Primary sequence": "QVQLVESVAGLVQAGGSLRLSCAASGSTFTGNAMGWYRQAPRKERELVAAITKGGSRTYYADSVKGRFTISRDNAKNTVYLQMNSLKPEDTAVYYCAAIERYSYLLYPKFDYWGQGTQVTVSS",
    "polyreactivity (PSR sort gate)": "high polyreactivity"
  },
  {
    "Primary sequence": "QVQLVESGGGLVQAGGSLRLSCAASGFILDWYTMGWYRHAPGKEREFVAAITSRGGDTYYADSVKGRFTISRDNAKNTVYLQMNSLTPEDTAVYYCNKGFKLWPRYGYDYWGQGTQVTVSS",
    "polyreactivity (PSR sort gate)": "low polyreactivity"
  },
  {
    "Primary sequence": "QVQLVESGGGLVQAGGSLRLSCAASGSTFWHYAMGWYRQAPGKERELVAAISSGGGRTYYADSVKGRFTISRDNAKNTVYLQMNSLKPEDTAVYYCAARYYFYDYWGQGTQVTVSS",
    "polyreactivity (PSR sort gate)": "high polyreactivity"
  },
  {
    "Primary sequence": "QVQLVESGGGLVQAGGSLRLSCAASGIIFFYYGMGWYIQAPGKERELVARISSGGSTNYADSVKGRFTISRDNAKITVYLQMNSLKQEDTAVYYCAARISTRYGYWGQGTQVTVSS",
    "polyreactivity (PSR sort gate)": "low polyreactivity"
  },
  {
    "Primary sequence": "QVQLVESGGGLVQAGGTLRLSCAASGGTFVSRAMGWYRQAPGKERELVAAISFSGDSTYYADSVKGRFTISRDNAKNTVYLQMNSLKPEDTAVYYCRFYSYWSWLGREYDYWGQGTQVTVSS",
    "polyreactivity (PSR sort gate)": "low polyreactivity"
  },
  {
    "Primary sequence": "QVQLVESGGGLVQAGGSLRLSCAASGGTFQSNAMGWYRQAPGKERELVASITSRGSSTYYADSVKGRFTISRDNAKNTFYLLMNSLKPEDTAVYYCAKGSSWQIYYKGGIKGGYWGQGTQVTVSS",
    "polyreactivity (PSR sort gate)": "low polyreactivity"
  },
  {
    "Primary sequence": "QVQLVESGGGLVQAGGSLRLSCSASGSIFDAYAMGWYRQAPGKEREMVAAISKGGTRTYYADSVKGRFTISRDNAKNTVYLQMNSLIPEDTAFYYCNSYYRREPDDGDYDYWGQGTQVTVSS",
    "polyreactivity (PSR sort gate)": "high polyreactivity"
  },
  {
    "Primary sequence": "QVQLVESGGGLVQAGGSLRLSCAASGNIFYTYAMGWYRPAPGKERELVAAITWSGGSTYYADSVKGRFTISRDKAKKTVYLQMNSLKPEDTAVYYCAADSLGYYYSGGYYSIYDHWGQGTQVTVSS",
    "polyreactivity (PSR sort gate)": "high polyreactivity"
  },
  {
    "Primary sequence": "QVQLVESGGGLVQAGGSLRLSCAASGHTFLEYAMGWYRQAPGKESELVASISFSAGSTYYADSVKGRFTISRDNAKNTVYLQLNSLKPEDTALYYCNAEYLYDYYYYWPYWFEFDYWGQGTQVTVSS",
    "polyreactivity (PSR sort gate)": "high polyreactivity"
  },
  {
    "Primary sequence": "QVQLVESGGGLVQAGGSLRLSCAASGRIFRSYAMGWYRQAPGKERELVADISISGGRTYYADSVKGRFTISRDNAKNTVYLQMNSLKPEDTAVYYCAARTYDRNRQLRRQWYDYWGQGTQVTVSS",
    "polyreactivity (PSR sort gate)": "high polyreactivity"
  }
]

----------
assay: yeast display, Sf9 membrane polyspecificity reagent, FACS + sequencing; frameworks hold sequencing errors
Measurement label: polyreactivity (PSR sort gate)

[
  {
    "Primary sequence": "QVQLVESGVCLVQAGGSLRLSCASSGLIIPPNAMGWYRQPPGKERELVASITRSGGSTYYADSVKGRFTISRDNAKNTVYVQMNSLTPEDTAVYYCAAYLDTSRYGVLYDYWGQGTQVTVSS",
    "Recorded value": "low polyreactivity"
  },
  {
    "Primary sequence": "QVQLVESGGGLVQAGGSLRFSCAASGRIFGTYAMGWYRQAPGKERELVAAITQSGGRTYYADSVKGRFTISRDNAKNTVYLQMNSLKPEDTAVYDCNKVTYRGIGLGYDYWGQGTQVTVSS",
    "Recorded value": "high polyreactivity"
  },
  {
    "Primary sequence": "QVQLVESGGGLVQAGGSLRLSCAASGFIFSSNAMGWYRQAPGKERELVAGITASGVSTYYADSVKGRFTISRDNAKNTVYLQMNSLKPEDTAVYYCAALGLYYYFYSQYIDWDDYWGQGTQVTVSS",
    "Recorded value": "low polyreactivity"
  },
  {
    "Primary sequence": "QVQLQESGGGLVQAGGDLRLSCAASGKILRDYIMGWYRQASGKEREFVAGIDRGANTNYADSVKGRLTISRDNAKKTVYLQMNSLKPEDTAVYYCAVHTAIVPDFIYWGQGTQVTVSS",
    "Recorded value": "low polyreactivity"
  },
  {
    "Primary sequence": "QVQLVESGGGLVQAGGSLRLSCADSGSTFSYNAMGWYRQAPGKERELVATITYSGTSTHYADSVKGRFTISRDNAKNTVYLQMNSLKPEDTAVYYCNAYSKGWGLPDDYWGQGTLVTVSS",
    "Recorded value": "low polyreactivity"
  },
  {
    "Primary sequence": "QVQLVESGGGLVQAGGSLRLSCAASGGTFYRYAMGWYRQAPGKEMELVAAISSRGGSTYYADSVKGRFTISRDNAKNTVYLQMNSLKPEDTAVYYCAALFYLTPWQYDYWGQGTQVTVSS",
    "Recorded value": "high polyreactivity"
  },
  {
    "Primary sequence": "QVQLVESGRGLVQAGGSLRLSCAASGIIFVKYAMGWYRQAPGKERELVAAISTRGGSTYYADSVKGRFTISRDNAKNTVYLQMNSLNPEDTAVYYCADDATRKSQLPNTVPYDYWGQGTQVTVSS",
    "Recorded value": "high polyreactivity"
  },
  {
    "Primary sequence": "QVQLVESGGGLVQAGGSLRLSCAASGSIFASNTMGWYRQAPGKERELVAGITKIGSSTYYADSVKGRFTISRDNAKNTVYLQMNSLKPEDTAVYYGNADYYFSWGSIEDYWGQGTQVSVSS",
    "Recorded value": "low polyreactivity"
  },
  {
    "Primary sequence": "QVHLVDSGGGLVQAGGSLRLSCAASGSIISVYFMEWYRQAPGKERELVASITSGASTNYADSVKGRFTISRDNAKNTVYLQINSLKPEDTAVYYCCARDWYDGFYYWGQGTQVTVSS",
    "Recorded value": "low polyreactivity"
  },
  {
    "Primary sequence": "QVQLVESGGGLVQAGGSLRLSCAASGSIIPYYVMGWYRQAPGKERELVAAITSGGSTYYADSVKGRFTISRDNAKNTVYLQMNSLKPEDTAVYYCAVRWYPLYAPYWRDYWGQGTQVTVSS",
    "Recorded value": "high polyreactivity"
  },
  {
    "Primary sequence": "QVQLVESGVGLVQAGGILSLSCAASGLTFGAYTMGWYRQAPGKERELVAAITSSGGRTYYADSVKGRFTISRDNAKITFYLQMNSLKPEDTAVFYCNARIFRSPNPYDYWGQGTQVSVSS",
    "Recorded value": "high polyreactivity"
  }
]
